tested on: ATP; assay: switch fluorescence ratio, 500 uM ATP over buffer (Cy3 cluster intensity, sum of 5 cycles each) (fold (ratio)); higher = stronger signal-on switching upon ATP binding; sequences stand for … in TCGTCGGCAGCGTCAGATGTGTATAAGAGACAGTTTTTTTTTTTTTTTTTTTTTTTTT…TC; settings: aptamer strand: ATP DNA aptamer (quencher-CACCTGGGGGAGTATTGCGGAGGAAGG + anchor), 100 nM annealed; ATP concentration: 500 uM;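 also: ATP exposure 15 min at 22 °C before imaging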
This listing pairs sequences with measured switch fluorescence ratio.
READOUT_TYPE: switch fluorescence ratio

{"CONSTRUCT_SEQUENCE": "TTCGGGGTCG", "READOUT_TYPE": "switch fluorescence ratio", "QUANTITATIVE_READOUT": 0.985}
{"CONSTRUCT_SEQUENCE": "ATTACTCTAC", "READOUT_TYPE": "switch fluorescence ratio", "QUANTITATIVE_READOUT": 1.27}
{"CONSTRUCT_SEQUENCE": "TTGCTTTTAA", "READOUT_TYPE": "switch fluorescence ratio", "QUANTITATIVE_READOUT": 0.991}
{"CONSTRUCT_SEQUENCE": "TGAGGGGAAT", "READOUT_TYPE": "switch fluorescence ratio", "QUANTITATIVE_READOUT": 1}
{"CONSTRUCT_SEQUENCE": "TTTTTCGCTC", "READOUT_TYPE": "switch fluorescence ratio", "QUANTITATIVE_READOUT": 1.01}
{"CONSTRUCT_SEQUENCE": "TTGTGAGTGG", "READOUT_TYPE": "switch fluorescence ratio", "QUANTITATIVE_READOUT": 0.976}
{"CONSTRUCT_SEQUENCE": "GCTGATGGTG", "READOUT_TYPE": "switch fluorescence ratio", "QUANTITATIVE_READOUT": 0.989}
{"CONSTRUCT_SEQUENCE": "AGGTGACGAG", "READOUT_TYPE": "switch fluorescence ratio", "QUANTITATIVE_READOUT": 1.02}
{"CONSTRUCT_SEQUENCE": "GCGGGTTGCT", "READOUT_TYPE": "switch fluorescence ratio", "QUANTITATIVE_READOUT": 1.25}
{"CONSTRUCT_SEQUENCE": "TATGTAGGAG", "READOUT_TYPE": "switch fluorescence ratio", "QUANTITATIVE_READOUT": 0.994}
{"CONSTRUCT_SEQUENCE": "GATTTTAATA", "READOUT_TYPE": "switch fluorescence ratio", "QUANTITATIVE_READOUT": 1.02}
{"CONSTRUCT_SEQUENCE": "TTGGAGAAAT", "READOUT_TYPE": "switch fluorescence ratio", "QUANTITATIVE_READOUT": 1.05}
{"CONSTRUCT_SEQUENCE": "ATGAGCGTCA", "READOUT_TYPE": "switch fluorescence ratio", "QUANTITATIVE_READOUT": 0.99}
{"CONSTRUCT_SEQUENCE": "TTTTGCTGAC", "READOUT_TYPE": "switch fluorescence ratio", "QUANTITATIVE_READOUT": 1.14}
{"CONSTRUCT_SEQUENCE": "TTCTTGACTT", "READOUT_TYPE": "switch fluorescence ratio", "QUANTITATIVE_READOUT": 1.02}
{"CONSTRUCT_SEQUENCE": "ATGTCCCGTT", "READOUT_TYPE": "switch fluorescence ratio", "QUANTITATIVE_READOUT": 0.98}
{"CONSTRUCT_SEQUENCE": "TTCCCAAATT", "READOUT_TYPE": "switch fluorescence ratio", "QUANTITATIVE_READOUT": 1.19}
{"CONSTRUCT_SEQUENCE": "GCTGTAGGCC", "READOUT_TYPE": "switch fluorescence ratio", "QUANTITATIVE_READOUT": 1.02}
{"CONSTRUCT_SEQUENCE": "CCGTTGTTTG", "READOUT_TYPE": "switch fluorescence ratio", "QUANTITATIVE_READOUT": 0.979}
{"CONSTRUCT_SEQUENCE": "ATTAGTAAGA", "READOUT_TYPE": "switch fluorescence ratio", "QUANTITATIVE_READOUT": 0.975}
{"CONSTRUCT_SEQUENCE": "CAGTTTACGT", "READOUT_TYPE": "switch fluorescence ratio", "QUANTITATIVE_READOUT": 0.983}
{"CONSTRUCT_SEQUENCE": "CGGGGAAGGC", "READOUT_TYPE": "switch fluorescence ratio", "QUANTITATIVE_READOUT": 1.13}
{"CONSTRUCT_SEQUENCE": "TACTTTGCTG", "READOUT_TYPE": "switch fluorescence ratio", "QUANTITATIVE_READOUT": 1.02}
{"CONSTRUCT_SEQUENCE": "CCCGGGTTGG", "READOUT_TYPE": "switch fluorescence ratio", "QUANTITATIVE_READOUT": 1.12}
{"CONSTRUCT_SEQUENCE": "GCGGGATGTC", "READOUT_TYPE": "switch fluorescence ratio", "QUANTITATIVE_READOUT": 0.972}
{"CONSTRUCT_SEQUENCE": "ATGGGCGATG", "READOUT_TYPE": "switch fluorescence ratio", "QUANTITATIVE_READOUT": 1.01}
{"CONSTRUCT_SEQUENCE": "CGGGTACCGC", "READOUT_TYPE": "switch fluorescence ratio", "QUANTITATIVE_READOUT": 1.05}
{"CONSTRUCT_SEQUENCE": "GAGGGGGGGC", "READOUT_TYPE": "switch fluorescence ratio", "QUANTITATIVE_READOUT": 1.01}
{"CONSTRUCT_SEQUENCE": "AAGCAGGTTA", "READOUT_TYPE": "switch fluorescence ratio", "QUANTITATIVE_READOUT": 1.01}
{"CONSTRUCT_SEQUENCE": "ATGAGGTTGC", "READOUT_TYPE": "switch fluorescence ratio", "QUANTITATIVE_READOUT": 0.978}
{"CONSTRUCT_SEQUENCE": "GGAGTAGACT", "READOUT_TYPE": "switch fluorescence ratio", "QUANTITATIVE_READOUT": 1.02}
{"CONSTRUCT_SEQUENCE": "AATGGGTTTG", "READOUT_TYPE": "switch fluorescence ratio", "QUANTITATIVE_READOUT": 1.01}
{"CONSTRUCT_SEQUENCE": "CGGTACTCGA", "READOUT_TYPE": "switch fluorescence ratio", "QUANTITATIVE_READOUT": 0.993}
{"CONSTRUCT_SEQUENCE": "GGGTGCTGCC", "READOUT_TYPE": "switch fluorescence ratio", "QUANTITATIVE_READOUT": 1}
{"CONSTRUCT_SEQUENCE": "AGTGCCTATG", "READOUT_TYPE": "switch fluorescence ratio", "QUANTITATIVE_READOUT": 0.994}
{"CONSTRUCT_SEQUENCE": "AGTACGTCTC", "READOUT_TYPE": "switch fluorescence ratio", "QUANTITATIVE_READOUT": 1.04}
{"CONSTRUCT_SEQUENCE": "TTATGGTGT", "READOUT_TYPE": "switch fluorescence ratio", "QUANTITATIVE_READOUT": 1}
{"CONSTRUCT_SEQUENCE": "CGCCCGCTGT", "READOUT_TYPE": "switch fluorescence ratio", "QUANTITATIVE_READOUT": 1.72}
{"CONSTRUCT_SEQUENCE": "TGCGGCTGGG", "READOUT_TYPE": "switch fluorescence ratio", "QUANTITATIVE_READOUT": 0.978}
{"CONSTRUCT_SEQUENCE": "TTGGTGGGGG", "READOUT_TYPE": "switch fluorescence ratio", "QUANTITATIVE_READOUT": 0.989}
{"CONSTRUCT_SEQUENCE": "TTACTTCATA", "READOUT_TYPE": "switch fluorescence ratio", "QUANTITATIVE_READOUT": 1.02}
{"CONSTRUCT_SEQUENCE": "GTTATCGGAC", "READOUT_TYPE": "switch fluorescence ratio", "QUANTITATIVE_READOUT": 1.01}
{"CONSTRUCT_SEQUENCE": "TGGTGGGGGT", "READOUT_TYPE": "switch fluorescence ratio", "QUANTITATIVE_READOUT": 0.999}
